# System: ACHN renal
# experimentSummary: NCI-60 one-dose screen, 48 h (100 = growth as untreated, 0 = no growth, -100 = all killed)
# measurementConditions: 10 µM unless noted
The panel holds about 83,000 compounds, 20% with a hit somewhere; the sample as a whole holds those more often.
measurementLabel: growth (%)
Respond with the bare value in %.

## Input Fill in the blank: the reported growth of "NS(=O)(=O)c1ccc(-n2cc(CC=O)nn2)cc1" is ____.
## Output 107

## Input Fill in the blank: the reported growth of "O=C(Cn1cc(CN2C(=O)c3ccc([N+](=O)[O-])cc3C2=O)nn1)Nc1ccccc1Br" is ____.
## Output 108

## Input Fill in the blank: the reported growth of "CCCCCCNC(=O)Oc1ccc(/C(=C(\C)c2ccc(OC)cc2)c2ccc(OCCN(C)C)cc2)cc1" is ____.
## Output 88.3

## Input Fill in the blank: the reported growth of "NC(=O)c1c(NC(=O)c2cccc(C(F)(F)F)c2F)sc2c1CCC(=O)C2" is ____.
## Output 6.7

## Input Fill in the blank: the reported growth of "N#Cc1c(NC(=O)c2ccc(F)c(Cl)c2)sc2c1CCC(=O)C2" is ____.
## Output -98.8

## Input Fill in the blank: the reported growth of "COc1cc2c3c(n(CCCN4CCC[C@H]4C(N)=O)c(=O)c2cc1OC)-c1cc2c(cc1C3=O)OCO2" is ____.
## Output 0.589

## Input Fill in the blank: the reported growth of "CC1(COc2ccc3ncc(C#Cc4cncc(C(=O)Nc5cc(C(C)(C)C)on5)c4)n3n2)COC1" is ____.
## Output 30.6

## Input Fill in the blank: the reported growth of "COc1cc([C@H]2OC[C@H]3[C@@H]2CO[C@@H]3c2ccc(O)c(OC)c2)ccc1O" is ____.
## Output 93.5

## Input Fill in the blank: the reported growth of "O=C(Nc1ccc(F)cc1)c1cc(-c2ccc(F)cc2F)ccc1O" is ____.
## Output 9.87

## Input Fill in the blank: the reported growth of "C=C1C(=O)O[C@@H]2C[C@@H](C)[C@H](OC)CC(=O)[C@](C)(OC(C)=O)C[C@H](OC(=O)/C(C)=C\C)[C@@H]12" is ____.
## Output 5.58

## Input Fill in the blank: the reported growth of C/C(=C(/C)C1CC1CCN(C(=O)c1ccc([N+](=O)[O-])cc1)S(=O)(=O)c1ccc(C)cc1)C1CCCCC1 (stereo not given) is ____.
## Output 99

## Input Fill in the blank: the reported growth of "Cc1ccc(NC(=O)c2ccc(CN3CCN(C)CC3)c(I)c2)cc1Oc1ccc(-c2[nH]nc3ncnc(N)c23)cc1" is ____.
## Output 76.9

## Input Fill in the blank: the reported growth of "Cc1ccc(NC(=O)c2ccc(CN3CCN(C)CC3)c(C(F)(F)F)c2)cc1Oc1ccc(-c2[nH]nc3ncnc(N)c23)cc1" is ____.
## Output 83

## Input Fill in the blank: the reported growth of "O=C(COc1cccc2cccnc12)Nc1ccc(C(=O)/C=C/c2ccc(Cl)cc2)cc1" is ____.
## Output 94

## Input Fill in the blank: the reported growth of "C=CCn1c(SCC(=O)Nc2cccc(C(=O)/C=C/c3cc(OC)c(OC)c(OC)c3)c2)nc2ccccc2c1=O" is ____.
## Output 45.7

---

# System: COLO 205 colon
# experimentSummary: NCI-60 one-dose screen, 48 h (100 = growth as untreated, 0 = no growth, -100 = all killed)
# measurementConditions: 10 µM unless noted
About 83,000 compounds went through this panel and 20% of them were active in at least one assay; those are over-represented in the sample as a whole.
Please go through the items and note down their growth.
Respond with the bare value in %.

## Input Fill in the blank: the reported growth of "CCN1CCN(c2cc(C(=O)Nc3nc4ccc(Oc5ccnc(C(=O)NC)c5)cc4s3)cc(C(F)(F)F)c2)CC1" is ____.
## Output 59.9

## Input Fill in the blank: the reported growth of "COc1ccc(N2CCN(C(=O)CSc3ccc(-c4nc5cc(C)c(C)cc5[nH]4)cn3)CC2)cc1" is ____.
## Output 60.2

## Input Fill in the blank: the reported growth of "CCc1ccc(NC(=O)N[C@@H](Cc2cc(F)cc(F)c2)C(=O)N[C@@H]2C(=O)N3CCC[C@H]3C(=O)N3CCO[C@H](C)[C@H]3C(=O)N[C@@H](CO)C(=O)N3C[C@H](C)C[C@H]3C(=O)O[C@H]2C)c(F)c1" is ____.
## Output -42.7

## Input Fill in the blank: the reported growth of "Oc1ccc(CSc2nnc(-c3ccc(Br)cc3)n2-c2ccccc2)c2cccnc12" is ____.
## Output 99.6

## Input Fill in the blank: the reported growth of "Cc1ccc(NC(=O)c2ccc(CN3CCN(C)CC3)c(C(F)(F)F)c2)cc1Oc1ccc(-c2[nH]nc3ncnc(N)c23)cc1" is ____.
## Output 52.5

## Input Fill in the blank: the reported growth of "Cc1cnc2nc(NN)[nH]n12" is ____.
## Output 101

## Input Fill in the blank: the reported growth of "Cc1nc(-c2cc3ccccc3c(N3CCN(C)CC3)n2)cs1" is ____.
## Output 88.5

## Input Fill in the blank: the reported growth of "CCOC(=O)Nc1ccc(-c2nc(-c3cccc(O)c3)c(-c3ccnc(Br)c3)[nH]2)cc1" is ____.
## Output 43.6

## Input Fill in the blank: the reported growth of "O=C(NCCNc1cc(-c2cn(-c3ccccc3)nc2-c2cccc(O)c2)ccn1)Nc1ccc(Cl)c(C(F)(F)F)c1" is ____.
## Output 92.9

## Input Fill in the blank: the reported growth of "O=C(CN1C(=O)S/C(=C\c2ccccc2)C1=O)Nc1ccc(C(=O)/C=C/c2cc3ccccc3nc2Cl)cc1" is ____.
## Output 103

---

# System: SK-OV-3 ovarian
# experimentSummary: NCI-60 one-dose screen, 48 h (100 = growth as untreated, 0 = no growth, -100 = all killed)
# measurementConditions: 10 µM unless noted
# Protocol: Growth inhibition of the SK-OV-3 human tumor cell line is measured as a screen for anti-cancer activity. Cells are grown in 96 well plates and exposed to the test compound for 48 hours. Compounds are tested at a single concentration, which is 10^-5 M for most compounds. The reported endpoint is percent growth (GI% or GIPRCNT), where numbers from 0 - 100% represent growth inhibition, and numbers from -100% - 0 represent cell death. For example, a value of 40 represents 60% growth inhibition. […]
This is part of a sample that, as a whole, favours compounds with a hit. Of some 83,000 tested, about 20% had one in any assay.
Classify by measured growth: yes if it is equal to or exceeds 80%, no if it is smaller.

## Input Dear colleague, could you confirm whether "CC1=C2C(=C[C@@](C)(COS(N)(=O)=O)[C@@H]2O)C(=O)[C@](C)(O)C12CC2" has growth at or above 80%?
## Output no

## Input Dear colleague, could you confirm whether "Cn1c2ccccc2c2c3c(c4c5ccc(Br)cc5oc4c21)C(=O)N(O)C3=O" has growth at or above 80%?
## Output yes

## Input Dear colleague, could you confirm whether "O=C1[C@H]2Cc3c([nH]c4ccccc34)[C@@H](c3c(Cl)cccc3Cl)N2C(=O)CN1C1CCN(Cc2ccccc2)CC1" has growth at or above 80%?
## Output yes

## Input Dear colleague, could you confirm whether "O=C(CCCCCCN1CC(=O)N2[C@@H](c3cccc(Cl)c3)c3[nH]c4ccccc4c3C[C@H]2C1=O)NO" has growth at or above 80%?
## Output no

## Input Dear colleague, could you confirm whether "COc1ccc([C@H]2c3[nH]c4ccccc4c3C[C@@H]3C(=O)N(C4CCN(Cc5ccccc5)CC4)CC(=O)N23)c(OC)c1" has growth at or above 80%?
## Output yes

## Input Dear colleague, could you confirm whether "O=C(CN1C(=O)S/C(=C\c2ccccc2)C1=O)Nc1ccc(C(=O)/C=C/c2cc3ccccc3nc2Cl)cc1" has growth at or above 80%?
## Output yes

---

# System: HOP-92 NSCLC
# experimentSummary: NCI-60 one-dose screen, 48 h (100 = growth as untreated, 0 = no growth, -100 = all killed)
# measurementConditions: 10 µM unless noted
This is part of a sample that, as a whole, favours compounds with a hit. Of some 83,000 tested, about 20% had one in any assay.
Please go through the items and note down their growth.
Respond with the bare value in %.

## Input Recall the recorded growth for "Nc1cc(F)ccc1NC(=O)c1ccc(NC(=O)C/C=C/c2cccnc2)cn1" with HOP-92 NSCLC and state it.
## Output 5.74

## Input Recall the recorded growth for "Cc1cn(-c2cc(NC(=O)c3cncc(C#Cc4cnc5ccc(O[C@H]6CCOC6)nn45)c3)cc(C(F)(F)F)c2)cn1" with HOP-92 NSCLC and state it.
## Output -9.26

## Input Recall the recorded growth for COc1ccc(C2CC(c3ccc(Nc4nc(NCCO)nc(Nc5ccc(Cl)cc5)n4)cc3)=Nc3c(N)nc(N)nc3N2)cc1 (configuration not stated) with HOP-92 NSCLC and state it.
## Output 74.6

## Input Recall the recorded growth for "Nc1c(C(=O)c2ccccc2)sc2nc(-c3cnccn3)cc(-c3cccs3)c12" with HOP-92 NSCLC and state it.
## Output 106

## Input Recall the recorded growth for "Oc1ccccc1/C=N/Nc1nc(N/N=C/c2ccccc2O)nc(N2CCOCC2)n1" with HOP-92 NSCLC and state it.
## Output -12.8

## Input Recall the recorded growth for "C=CCn1c(SCC(=O)Nc2cccc(C(=O)/C=C/c3ccccc3Cl)c2)nc2ccccc2c1=O" with HOP-92 NSCLC and state it.
## Output 70.7

## Input Recall the recorded growth for "Oc1ccc(CSc2nnc(-c3ccncc3)o2)c2cccnc12" with HOP-92 NSCLC and state it.
## Output -20.8
